- TARGET OR TEST SYSTEM: full length human TPH1 (Homo sapiens)
- Construct: To generate the enzyme, full length human TPH1 is cloned into the plasmid pET20b(+); made in house; host or cells: E. coli
- Sequence (P17752 whole entry): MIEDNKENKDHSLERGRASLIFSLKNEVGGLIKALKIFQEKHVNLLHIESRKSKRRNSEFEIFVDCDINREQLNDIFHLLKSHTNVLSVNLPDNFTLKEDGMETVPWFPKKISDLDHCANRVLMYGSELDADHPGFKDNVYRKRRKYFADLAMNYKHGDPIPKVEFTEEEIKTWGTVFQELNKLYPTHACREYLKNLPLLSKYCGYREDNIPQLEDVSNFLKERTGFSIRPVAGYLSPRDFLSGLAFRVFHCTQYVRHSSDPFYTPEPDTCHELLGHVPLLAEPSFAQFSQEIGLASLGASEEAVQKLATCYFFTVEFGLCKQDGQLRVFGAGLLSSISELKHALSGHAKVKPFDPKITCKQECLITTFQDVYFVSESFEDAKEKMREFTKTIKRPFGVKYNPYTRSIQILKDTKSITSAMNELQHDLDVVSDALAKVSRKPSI
- EXPERIMENT NOTES: Biochemical in vitro assay using fluorescence readout (TPH1 enzyme activity)
- CONDITION INFO: Table 1, mean where determined several times
pIC50: −log10 of the molar value.
MEASURE: pIC50

Answered cases to consult:
Cc1ccc(C2c3c(nc4n3CCCC4)CCN2C(=O)COc2ccc(C(=O)N(C)C3CC3)nc2Cl)c(F)c1F (stereo not shown)
7.57
O=C(NC1CC1)c1ccc(OCC(=O)N2CCc3nc4n(c3C2c2ccc(Cl)cc2F)CCCC4)c(Cl)n1 (stereo not shown)
7.72
CC(=O)N1CCn2c(nc3c2C(c2ncccc2F)N(C(=O)COc2ccc(N4CCOCC4)nc2Cl)CC3)C1 (stereo not shown)
7.85
CN(C(=O)c1ccc(OCC(=O)N2CCc3nc4n(c3C2c2ccc(C3CC3)cc2F)CCCC4)c(Cl)n1)C1CC1 (stereo not shown)
7.70

a. O=C(COc1ccc(-c2ncco2)nc1Cl)N1CCc2nc3n(c2C1c1ccc(Cl)cc1F)CCCC3 (stereo not shown)
b. CCc1nc(NS(C)(=O)=O)ccc1OCC(=O)N1CCc2nc3n(c2[C@@H]1c1sc(C)nc1C)CCC3
c. CCc1nc(C(=O)NC2CC2)ccc1OCC(=O)N1CCc2nc3n(c2C1c1sccc1F)CCCC3 (stereo not shown)
Task for the reader: rank each entry by its pIC50, from the minimum upward. Submit the labels in the order that the ranking request calls for.
a, c, b
(a: 7.68, c: 7.92, b: 8.15)
